This section presents binders with their documented pEC50 values.
- Measured target: T1, human Claudin18.2 (human)
- T1 construct: also called CLDN18.2
- Assay protocol: FACS, Claudin18.2-HEK293 cells
Answer as the number alone; pEC50 is minus log10 of concentration in mol/L.

{"Binder": "chimeric 185F2G12 (antibody, human IgG1, kappa, V domains shown, chimeric, human IgG1/kappa constant regions) VH: QAYLQQSGAELVRSGASVKMSCKASGYTFTSYNMHWVRQTPGQGLEWIGYIYPGNGGTNYSQKFKGKASLTADTSSTTAYMQISSLTSEDSAVYFCATGRGFAYWGQGTLVTVSA VL: DIVMTQSPSSLTVTAGEKVTLSCKSSQSLFNTGNQKNYLTWYQQKPGQPPKLLIFRASTRESGVPDRFTGSGFGTDFTLTISSVQAEDLAVYYCQNDFSYPLTFGAGTKLELKR", "Reported measurement": 9.20}
{"Binder": "chimeric 207F8G5 (antibody, human IgG1, kappa, V domains shown, chimeric, human IgG1/kappa constant regions; also called 207F8G5-Chimeric) VH: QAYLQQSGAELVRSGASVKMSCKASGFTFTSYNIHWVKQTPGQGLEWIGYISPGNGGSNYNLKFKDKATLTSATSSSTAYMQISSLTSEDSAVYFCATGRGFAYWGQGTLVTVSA VL: DIVMTQSPSSLTVTPGEKVTMSCKSSQSLFNSGNQKNYLIWYQQKPGQPPKLLIYRASTRDSGVPDRFTGSGSGTDFTLTISNVQAEDLAIYYCQNDYSYPLTFGAGTKLELKR", "Reported measurement": 9.26}

Attention now turns to another entry.
// lookup pEC50 for chimeric 257B1G9 (antibody, human IgG1, kappa, V domains shown, chimeric, human IgG1/kappa constant regions) VH: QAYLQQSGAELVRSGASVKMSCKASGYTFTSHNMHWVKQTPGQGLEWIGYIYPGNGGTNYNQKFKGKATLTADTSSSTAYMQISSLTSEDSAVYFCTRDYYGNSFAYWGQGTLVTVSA VL: DIVMTQSPSSLTERAGERVSMSCKSSQSLFNSGNQKNYLTWYQQKPGQPPKLLIYWASTRESGVPDRFTGSGSGTDFTLTISSVQAEDLAVYYCQNDYRYPFTFGAGTKLELKR 8.93
